Could you please report measured F2 for the items listed next?
# System: CYP2B6
# Assay Details: CYP2B6 enzyme induction assay in cryopreserved HepaRG cells (bupropion probe, LC/MS)
# Type: in vitro ADME, human
# Settings: CYP2B6, HepaRG cells; in vitro concentration producing 2-fold induction
# unit: µM | format: bare number

QUERY: Find the recorded F2 belonging to NC(=O)N1c2ccccc2C=Cc2ccccc21 [Carbamazepine] and report it.
RESULT: 18.8

QUERY: Find the recorded F2 belonging to O=C1NC(=O)C(c2ccccc2)(c2ccccc2)N1 [Phenytoin sodium] and report it.
RESULT: 1.35

* * *

# Tested on: CYP3A4
# Assay Details: CYP3A4 enzyme induction assay in cryopreserved HepaRG cells (midazolam probe, LC/MS)
# Format: in vitro ADME, human
# Settings: CYP3A4, HepaRG cells
Structures can show the parent of a compound that is named as a salt.
Measurement Label: Induction in vitro

Check out these entries, answers already filled in.
COc1ccc2[nH]c([S+]([O-])Cc3ncc(C)c(OC)c3C)nc2c1 (stereo not drawn) [Omeprazole]    No
COc1ccccc1Oc1c(NS(=O)(=O)c2ccc(C(C)(C)C)cc2)nc(-c2ncccn2)nc1OCCO [Bosentan hydrate]    Yes
CC(C)NCC(O)c1ccc(NS(C)(=O)=O)cc1 (stereo not drawn) [Sotalol hydrochloride]    No
NC(=O)N1c2ccccc2C=Cc2ccccc21 [Carbamazepine]    Yes

QUERY: Find the recorded Induction in vitro belonging to O=C1NC(=O)C(c2ccccc2)(c2ccccc2)N1 [Phenytoin sodium] and report it.
RESULT: Yes

QUERY: Find the recorded Induction in vitro belonging to COCCc1ccc(OCC(O)CNC(C)C)cc1 (stereo not drawn) [Metoprolol] and report it.
RESULT: No

* * *

Could you please report measured Assigned classification CYP2B6 for the items listed next?
# System: CYP2B6
# Assay Details: CYP2B6 enzyme induction assay in cryopreserved primary human hepatocytes (PHH);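 further: code 1 means positive inducer and 0 means non-inducer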
# Format: in vitro ADME
# Settings: PHH; Lab 2; batch 8 0 8
Where a name gives a salt, the structure may show the parent alone.
Answer with the value's number alone.

QUERY: Find the recorded Assigned classification CYP2B6 belonging to CO[C@H]1/C=C/O[C@@]2(C)Oc3c(C)c(O)c4c(c3C2=O)C2=NC3(CCN(CC(C)C)CC3)NC2=C(NC(=O)/C(C)=C\C=C\[C@H](C)[C@H](O)[C@@H](C)[C@@H](O)[C@@H](C)[C@H](OC(C)=O)[C@@H]1C)C4=O and report it.
RESULT: 1

QUERY: Find the recorded Assigned classification CYP2B6 belonging to CC(C)NCC(O)c1ccc(NS(C)(=O)=O)cc1 (stereo not drawn) [Sotalol hydrochloride] and report it.
RESULT: 0

QUERY: Find the recorded Assigned classification CYP2B6 belonging to COc1ccc2[nH]c([S+]([O-])Cc3ncc(C)c(OC)c3C)nc2c1 (stereo not drawn) and report it.
RESULT: 0

QUERY: Find the recorded Assigned classification CYP2B6 belonging to CO[C@H]1/C=C/O[C@@]2(C)Oc3c(C)c(O)c4c(O)c(c(/C=N/N5CCN(C)CC5)c(O)c4c3C2=O)NC(=O)/C(C)=C\C=C\[C@H](C)[C@H](O)[C@@H](C)[C@@H](O)[C@@H](C)[C@H](OC(C)=O)[C@@H]1C and report it.
RESULT: 1

QUERY: Find the recorded Assigned classification CYP2B6 belonging to COCCc1ccc(OCC(O)CNC(C)C)cc1 (stereo not drawn) and report it.
RESULT: 0

QUERY: Find the recorded Assigned classification CYP2B6 belonging to O=C1NC(=O)C(c2ccccc2)(c2ccccc2)N1 [Phenytoin sodium] and report it.
RESULT: 0
